Each recorded value in this set is attributed to patent US11753407B2.

Listed molecules paired with reported melting point
result type: melting point

smiles data	meas value
Cc1cc(C2CCN(C3CCC3)CC2)cn2c(=O)cc(-c3ccc4nn(C)cc4c3)nc12	232 to 235 °C
Cc1cc(C2CCNCC2)cn2c(=O)cc(-c3ccc4nn(C)cc4c3)nc12	211 °C
Cc1cn2nc(-c3cc(=O)n4cc(N5CCNCC5)ccc4n3)cc2cn1	202 to 204 °C
Cc1cn(-c2cc(=O)n3cc(N4CCN[C@@H](C)C4)ccc3n2)cn1	204 to 206 °C
Cc1cn2nc(-c3cc(=O)n4cc(N5CCC(N6CCCCC6)CC5)ccc4n3)cc2c(C)n1	236 to 238 °C
Cc1cn2cc(-c3cc(=O)n4cc(N5CCCN(C)CC5)ccc4n3)ccc2n1	208 to 213 °C
CCN1CCN(c2ccc3nc(-c4cc(Cl)c5nc(C)cn5c4)cc(=O)n3c2)C[C@@H]1C	234 to 245 °C
COc1ccc(-c2cc(=O)n3cc(C4=CCN(C)CC4)c(C)cc3n2)cc1OC	174 to 178 °C
CCc1cc(-c2cc(=O)n3cc(N4CCN(C5CCC5)CC4)ccc3n2)cn2cc(C)nc12	274 to 279 °C
Cc1nc2ccc(-c3cc(=O)n4cc(N5CCNCC5)ccc4n3)cc2s1	218 to 220 °C
COc1ccc(-c2cc(=O)n3cc(N4CCNCC4)c(C)cc3n2)cc1OC	161 to 169 °C
CNCCNc1ccc2nc(-c3ccc(OC)c(OC)c3)cc(=O)n2c1	135 to 138 °C
Cc1cn2nc(-c3cc(=O)n4cc(N5CCN(C)CC5)ccc4n3)cc2c(C2CC2)n1	238 to 240 °C
Cc1nc2ccc(-c3cc(=O)n4cc(N5CCCNCC5)ccc4n3)cc2s1	205 to 207 °C
Cc1cn2ccc(-c3cc(=O)n4cc(C5CCN(C)CC5)ccc4n3)cc2n1	255 to 260 °C
COc1ccc(-c2cc(=O)n3cc(C4=CCN(C5COC5)CC4)cc(C)c3n2)cc1OC	180 to 195 °C
CCN(CC)CC1CN(c2ccc3nc(-c4cc5c(C)nc(C)cn5n4)cc(=O)n3c2)C1	205 to 207 °C

---

smiles data	melting point
COc1cc(F)c(-c2cc(=O)n3cc(N4CCN[C@@H](C)C4)ccc3n2)cc1OC	167 to 170 °C
CCN1CCC(c2cc(C)c3nc(-c4ccc5nn(C)cc5c4)cc(=O)n3c2)CC1	237 to 241 °C
Cc1cc2cc(-c3cc(=O)n4cc(N5CCN(C)CC5)ccc4n3)oc2c(C)n1	256 to 258 °C
O=c1cc(-c2ccc3c(c2)OCCO3)nc2ccc(N3CCNCC3)cn12	230 to 232 °C
Cc1cc(-c2cc(=O)n3cc(N4CCN(C)[C@@H](C)C4)ccc3n2)cc2cn(C)nc12	202 to 204 °C
CCc1cc(N2CCN3CCC[C@@H]3C2)cn2c(=O)cc(-c3ccc(OC)c(OC)c3)nc12	180 to 184 °C
CCc1cc(-c2cc(=O)n3cc(N4CCN5CCC[C@@H]5C4)ccc3n2)cn2cc(C)nc12	231 to 235 °C
COc1ccc(-c2cc(=O)n3cc(N[C@@H]4CCN(C)C4)ccc3n2)cc1F	197 to 202 °C

---

# Tested on: SMN2 minigene mRNA (SMN2-A minigene) in HEK293H cells
# protocol text: SMN2 minigene mRNA splicing RT-qPCR assay in cultured cells
# Format: cell-based, human
# settings: Homo sapiens, HEK293-H; concentration increasing full length SMN2 mRNA 1.5-fold relative to vehicle-treated cells; HEK293H cells with SMN2-A minigene, 24 hours, 7-point concentration data; read-out: EC1.5x for production of full length SMN2 mRNA
Listed compounds paired with reported EC (1.5-fold increase)
result type: EC (1.5-fold increase)

smiles data	assayed target	meas value
Cc1cn2cc(-c3cc(=O)n4cc(N5CCN6CCC[C@@H]6C5)ccc4n3)cc(Cl)c2n1	SMN2 minigene mRNA (SMN2-A minigene) in HEK293H cells	< 0.1 µM
Cc1cn2nc(-c3cc(=O)n4cc(N5CCN6CCC[C@@H]6C5)ccc4n3)cc2c(C)n1	SMN2 minigene mRNA (SMN2-A minigene) in HEK293H cells	< 0.1 µM
COc1ccc(-c2cc(=O)n3cc(N4CCN[C@@H](C)C4)ccc3n2)cc1OC	SMN2 minigene mRNA (SMN2-A minigene) in HEK293H cells	< 0.1 µM
Cc1cn2nc(-c3cc(=O)n4cc(C5=CCN(C6CC6)CC5)ccc4n3)cc2c(C)n1	SMN2 minigene mRNA (SMN2-A minigene) in HEK293H cells	< 0.1 µM
CCN1CC=C(c2cn3c(=O)cc(-c4ccc5c(cnn5C)c4)nc3cn2)CC1	SMN2 minigene mRNA (SMN2-A minigene) in HEK293H cells	0.1 to 0.3 µM
CCc1cc(N2CCN[C@H](C)C2)cn2c(=O)cc(-c3ccc(OC)c(OC)c3)nc12	SMN2 minigene mRNA (SMN2-A minigene) in HEK293H cells	0.1 to 0.3 µM
CCc1cc(-c2cc(=O)n3cc(C4CCN(CC)CC4)ccc3n2)cn2cc(C)nc12	SMN2 minigene mRNA (SMN2-A minigene) in HEK293H cells	< 0.1 µM
Cn1cc2cc(-c3cc(=O)n4cc(C5CCN(CCO)CC5)ccc4n3)ccc2n1	SMN2 minigene mRNA (SMN2-A minigene) in HEK293H cells	< 0.1 µM

---

result type: melting point

molecule	result type	meas value
Cc1cn2cc(-c3cc(=O)n4cc(N5CCCN(C)CC5)ccc4n3)cc(F)c2n1	melting point	262 to 266 °C
Cc1nc2ccc(-c3cc(=O)n4cc(N5CCN(C)CC5)ccc4n3)cc2o1	melting point	178 to 183 °C
CN1CCCN(c2ccc3nc(-c4ccc5c(c4)OCCO5)cc(=O)n3c2)CC1	melting point	150 to 152 °C
Cc1cn2nc(-c3cc(=O)n4cc(C5CCN(C6CC6)CC5)ccc4n3)cc2c(C)n1	melting point	180 to 183 °C
COc1ccc(-c2cc(=O)n3cc(N4CCN[C@H](C)C4)ccc3n2)cc1C(F)(F)F	melting point	205 to 212 °C
CCN1CCC2CN(c3ccc4nc(-c5cc6c(C)nc(C)cn6n5)cc(=O)n4c3)CCC21 (stereo not drawn)	melting point	176 to 178 °C
COc1ccc(-c2cc(=O)n3cc(N4C[C@H]5CCN(C)[C@H]5C4)ccc3n2)cc1F	melting point	205 to 209 °C
COc1ccc(-c2cc(=O)n3cc(N4CCN[C@@H](C)C4)ccc3c2)cc1F	melting point	188 to 192 °C
Cc1cn2cc(-c3ccc4nc(C5=CCNCC5)cc(=O)n4c3)ccc2n1	melting point	197 to 201 °C
Cc1cn2nc(-c3cc(=O)n4cc(C5=CCNCC5)cc(C)c4n3)cc2c(C)n1	melting point	> 300 °C
CCN1CCC(c2ccc3nc(-c4cc(C)c5nn(C)cc5c4)cc(=O)n3c2)CC1	melting point	162 to 164 °C
CN[C@H]1CCN(c2ccc3nc(-c4ccc(OC)c(F)c4)cc(=O)n3c2)C1	melting point	208 to 216 °C
COc1ccc(-c2cc(=O)n3cc(N4CCN[C@@H](C)C4)ccc3n2)cc1OC(F)F	melting point	167 to 169 °C
Cc1cn2nc(-c3cc(=O)n4cc(N5CCN(C)CC5)cc(C)c4n3)cc2c(C)n1	melting point	262 to 271 °C
CCc1nc(C)cn2nc(-c3cc(=O)n4cc(N5C[C@@H](C)N[C@@H](C)C5)ccc4n3)cc12	melting point	258 to 260 °C
CCN1CCC(c2ccc3nc(-c4ccc5nc(C)oc5c4)cc(=O)n3n2)CC1	melting point	284 to 286 °C
CCc1cc(N2CCC(N(C)C)CC2)cn2c(=O)cc(-c3ccc(OC)c(OC)c3)nc12	melting point	146 to 150 °C
COc1ccc(-c2cc(=O)n3cc(C4=CCN(C5CCC5)CC4)ccc3n2)cc1OC	melting point	152 to 154 °C
Cc1cn2nc(-c3cc(=O)n4cc(N5CCC(CN(C)C)CC5)ccc4n3)cc2c(C)n1	melting point	206 to 208 °C
Cc1cc(-c2cc(=O)n3cc(N4CCNCC4)ccc3n2)cc2cn(C)nc12	melting point	194 to 196 °C
Cc1cn2nc(-c3cc(=O)n4cc(N5CCN6CCC[C@@H]6C5)cc(C)c4n3)cc2c(C)n1	melting point	244 to 256 °C
COCCN1CCN(c2ccc3nc(-c4cc(F)c5nc(C)cn5c4)cc(=O)n3c2)C[C@@H]1C	melting point	215 to 219 °C
Cc1cn2cc(-c3cc(=O)n4cc(C5CCN(CCO)CC5)ncc4n3)cc(Cl)c2n1	melting point	266 to 268 °C
Cc1cn2cc(-c3cc(=O)n4cc(C5=CCNCC5)ccc4n3)ccc2n1	melting point	206 to 208 °C
CN(C)c1ccc(-c2cc(=O)n3cc(N4CCNCC4)ccc3n2)cc1	melting point	211 to 215 °C
Cc1nc2ccc(-c3cc(=O)n4cc(N5CC[C@@H](N(C)C)C5)ccc4n3)cc2s1	melting point	235 to 240 °C
COc1ccc(-c2ccc3nc(C4=CCNCC4)cc(=O)n3c2)cc1F	melting point	188 to 192 °C
COc1cccc(-c2cc(=O)n3cc(N4C[C@@H](C)N[C@@H](C)C4)ccc3n2)c1	melting point	189 to 191 °C
COc1ccc(-c2cc(=O)n3cc(N4CCC(NCCO)CC4)cc(C)c3n2)cc1OC	melting point	185 to 193 °C
COc1ccc(-c2cc(=O)n3cc(N4CCN[C@@H](C)C4)ccc3c2)cc1OC	melting point	243 to 245 °C
Cc1cn2nc(-c3cc(=O)n4cc(N5CCC(N(C)C)CC5)cc(C)c4n3)cc2c(C)n1	melting point	231 to 241 °C
C[C@H]1CN(c2ccc3nc(-c4ccc(OC(F)F)cc4)cc(=O)n3c2)CCN1	melting point	166 to 168 °C
CCc1cc(-c2cc(=O)n3cc(N4CCN[C@H](C)C4)ccc3n2)cn2cc(C)nc12	melting point	230 to 234 °C
